The reported numbers originate from BigSolDB 2.1.

settings: in water, 303.15 K
Measurement Label: solubility (mole fraction)
Note: the reply should be a number with no unit written.

Req: What measured solubility (mole fraction) goes with O=C(O)[C@@H]1C[C@@H](O)CN1 ?
Resp: 0.053

---

details: in sec-butanol, 323.15 K
Measurement Label: solubility (mole fraction)
// no unit, no text: just the number

Req: I have this molecule here, O=C(O)[C@@H]1C[C@@H](O)CN1 , and I need its recorded solubility (mole fraction).
Resp: 0.000321

---

conditions: in n-pentanol, 323.15 K
Measurement Label: solubility (mole fraction)

Req: GET /values?readout=solubility (mole fraction)&item= O=C(O)[C@@H]1C[C@@H](O)CN1
Resp: 0.000628
